Molecular target: T1, Human EphA2-Fc fusion protein (human, UniProt P29317 24-537)
T1 construct: extracellular domain; Expressed in HEK 293 cells; Biotinylated in the capture ELISAs; also called soluble EphA2 Fc fusion protein; not shown: Fc portion of a human IgG1
Assay: SPR (BIAcore 3000), KD against that of 4H5 scFv
Respond with satisfied for Fold Difference (vs 4H5) values of 20 fold and above, not satisfied for values below.

{"BINDER": "VH VL 12E2 scFv (scFv, FLAG and His tags as for 4H5 scFv) scFv: QVQLLESGGGLVQPGGSLRLSCAASGFTFSSYTMSWVRQAPGQALEWMGTISSRGTYTYYPDSVKGRFTISRDNAKNSLYLQMNSLRAEDTAVYYCAREAIFTYWGRGTLVTVSSGGGGSGGGGSGGGGSDIQLTQSPSSLSASVGDRVTITCKASQDINNYLSWYQQKPGQAPRLLIYRANRLFDGVPDRFSGSGYGTDFTLTINNIESEDAAYYFCLKYDRFPYTFGQGTKVEIK", "DISCRETE_LABEL": "satisfied"}
{"BINDER": "parental anti-EphA2 scFv EA2 (scFv, The murine EA2 variable regions were cloned in the same manner as the 4H5 scFv (VH, linker, VL, FLAG, His); also called EA2 scFv; not shown: C-terminal FLAG tag and His tag) scFv: DVKLVESGGGLVKPGGSLKLSCAASGFTFSSYTMSWVRQTPEKRLEWVATISSGGTYTYYPDSVKGRFTISRDNAKNTLYLQMSSLKSEDTAMYYCTREAIFTYWGQGTLVTVSAGGGGSGGGGSGGGGSDIKMTQSPSSMYASLGERVTITCKASQDINNYLSWFQQKPGKSPKTLIYRANRLVDGVPSRFSGSGSGQDYSLTISSLEYEDMGIYYCLKYDEFPYTFGGGTKLEIK", "DISCRETE_LABEL": "not satisfied"}
{"BINDER": "VH VL 2E7 scFv (scFv, FLAG and His tags as for 4H5 scFv) scFv: QVQLLESGGGLVQPGGSLRLSCAASGFTFSSYTMSWVRQAPGQALEWMGTISSRGTYTYYPDSVKGRFTISRDNAKNSLYLQMNSLRAEDTAVYYCAREAIFTHWGRGTLVTVSSGGGGSGGGGSGGGGSDIQLTQSPSSLSASVGDRVTITCKASQDINNYGSWYQQKPGQAPRLLIYRANRLVDGVPDRFSGSGYGTDFTLTINNIESEDAAYYFCLKYNRFPYTFGQGTKVEIK", "DISCRETE_LABEL": "satisfied"}
{"BINDER": "4H5 VH-VL scFv humanized clone (scFv, Expressed with a C-terminal FLAG tag and His tag; also called 4H5 scFv; scFv 4H5) scFv: QVQLLESGGGLVQPGGSLRLSCAASGFTFSSYTMSWVRQAPGQALEWMGTISSGGTYTYYPDSVKGRFTISRDNAKNSLYLQMNSLRAEDTAVYYCAREAIFTYWGRGTLVTVSSGGGGSGGGGSGGGGSDIQLTQSPSSLSASVGDRVTITCKASQDINNYLSWYQQKPGQAPRLLIYRANRLVDGVPDRFSGSGYGTDFTLTINNIESEDAAYYFCLKYDVFPYTFGQGTKVEIK", "DISCRETE_LABEL": "not satisfied"}
{"BINDER": "VH VL 2A4 scFv (scFv, FLAG and His tags as for 4H5 scFv) scFv: QVQLLESGGGLVQPGGSLRLSCAASGFTFSSYTMSWVRQAPGQALEWMGTISSRGTYTYYPDSVKGRFTISRDNAKNSLYLQMNSLRAEDTAVYYCAREAIFTHWGRGTLVTVSSGGGGSGGGGSGGGGSDIQLTQSPSSLSASVGDRVTITCKASQDINNYHSWYQQKPGQAPRLLIYRANRLVDGVPDRFSGSGYGTDFTLTINNIESEDAAYYFCLKYNVFPYTFGQGTKVEIK", "DISCRETE_LABEL": "satisfied"}
